The entries below are paired with their reported folding stability dG unfold.
assay: folding stability dG unfold (combined trypsin and chymotrypsin); higher = more stable
Write the value in kcal/mol as a bare number.

# folding stability dG unfold lookup, item SAGGSFEPKREIEITLPNGREIEVWRYPGEGQMWVKLRFPNNGQKVEIPVKSPEDAEDSLKKFLKNSAGGSA [r2_70_TrROS]
-0.169

Next:
Which folding stability dG unfold value belongs to SAGGSAGGSAKAVIFFEGASIEDVVEAVKARPEEEVLVVFPDGRVLLLTKDDVVVVVPAPFSAGGSAGGSAG [r3_269_TrMRF] ?
1.23

Moving on to SAGGSNPNMFRLKVEIEPYEYRDPDGQPKARVWKIDIEMEPGMPPNMAKNIASNFQNRGLPVKIEPSAGGSA [r2_456_TrROS]
0.578

Again, but for SPLKEGDTLTFTLPVPDLPNVRIEIDLHFYKDPNTDRYRVLANITVYYGDKPVTFSIEMPVDTFLDLLKSSA [r9_71_TrMRF]
2.87

SAGGKTIMIMFTPDNAEEIAETIVDEFGYDVKIEKVQPMPMKDPDGKQKAPYYMIEIEIKVPDPGQPLSAGG [r13_943_TrROS] , same question.
0.505

Now give it for SAGGSAGGSAGGSKKKKKKKKKKVVKLTVLIEKDGELYLVEIEFDKDGKIVSISVEKLPSAGGSAGGSAGGS [r4_192_TrROS_Hall] too.
3.27
